Test system: Radical scavenging activity
PROTOCOL TEXT: Antioxidant activity assessed as trolox equivalent of DPPH radical scavenging activity after 15 mins by spectroscopic analysis
Format: functional
Active and inactive are the calls of the source. No cut-off for these calls is given here.

{"MOLECULE": "CSN1C(=O)[C@H]([C@@H](C)OC(=O)/C=C/c2ccc(O)c(O)c2)[C@H]1OC(C)=O", "TESTED TARGET": "Radical scavenging activity", "Activity": "1.23 mmol"}
{"MOLECULE": "CSN1C(=O)C[C@@H]1OC(C)=O", "TESTED TARGET": "Radical scavenging activity", "Activity": "inactive"}
{"MOLECULE": "CSN1C(=O)[C@H]([C@@H](C)OC(=O)c2ccc(O)c(O)c2)[C@H]1OC(C)=O", "TESTED TARGET": "Radical scavenging activity", "Activity": "1.96 mmol"}
{"MOLECULE": "CC(=O)SC1CC(=O)N1 (centres undefined)", "TESTED TARGET": "Radical scavenging activity", "Activity": "inactive"}
{"MOLECULE": "CSN1C(=O)[C@H]([C@@H](C)O)[C@H]1OC(C)=O", "TESTED TARGET": "Radical scavenging activity", "Activity": "inactive"}
{"MOLECULE": "CSN1C(=O)[C@H]([C@@H](C)O)[C@H]1SC(C)=O", "TESTED TARGET": "Radical scavenging activity", "Activity": "inactive"}
{"MOLECULE": "CCOCOc1c(OC)cc(C(=O)O[C@H](C)[C@H]2C(=O)N(SC)[C@@H]2OC(C)=O)cc1OC", "TESTED TARGET": "Radical scavenging activity", "Activity": "inactive"}
{"MOLECULE": "CSN1C(=O)CC1SC(C)=O (centres undefined)", "TESTED TARGET": "Radical scavenging activity", "Activity": "inactive"}
{"MOLECULE": "COc1cc(C(=O)O[C@H](C)[C@H]2C(=O)N(SC)[C@@H]2OC(C)=O)cc(OC)c1O", "TESTED TARGET": "Radical scavenging activity", "Activity": "0.0091 mmol"}

Data provenance is ChEMBL document CHEMBL2311373.
